system: WT EGFR cell line A-431; assay: Cell proliferation, WT EGFR A431 (CellTiter-Glo, 72 h); assay type: cell-based; conditions: Homo sapiens, A-431, 72 h, A431, 72 h proliferation; read-out: EGFR WT A431 GI50;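 further: proliferation from a luminescent ATP viability signal, expressed as 100 × (treated minus time-zero plate) over (DMSO control minus time-zero plate), cells grown with 10% FBS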
Property Measured: GI50 (nM)

Structure String: C=CC(=O)Nc1cc(Nc2ncnc(Nc3cc(Cl)c(F)cc3C(C)(C)O)n2)c(OC)cc1N1CC[C@@H]1CN(C)C
Experimental System: WT EGFR cell line A-431
GI50 (nM): 19.7

a. C=CC(=O)Nc1cc(Nc2ncnc(Nc3ccccc3C3(O)COC3)n2)c(OC)cc1N(C)CCN(C)C
b. C=CC(=O)Nc1cc(Nc2ncnc(Nc3cc(F)c(Cl)cc3C(C)(C)O)n2)c(OC)cc1N1CC[C@@H](N(C)C)C1
Query: Response body: label of entry with the larger GI50; valid values a , b . To answer, give the label that identifies your chosen option.
Reply: a

These measurements were taken from patent US20230293535A1.
